Test system: Bovine cardiac myofibrils
test.details: In vitro model of dose-dependent myofibril ATPase modulation (AC1.4, pyruvate kinase/lactate dehydrogenase-coupled ATPase assay at pCa25)
Type: biochemical
applied.conditions: concentration at which ATPase activity was 1.4-fold higher than the bottom of the dose curve, mean of a minimum of two independent tests
Measured AC1.4 of individual entries
Your answer is read as µM, so omit the unit and give the number.

Before answering, review these 4 worked examples.
compound | target.entity | AC1.4 / µM
Cc1c(Cl)cccc1CNC(=O)[C@H]1CCCN1C(=O)[C@H]1CCCN(S(=O)(=O)N2CC(C#N)C2)C1 [Example 152] | Bovine cardiac myofibrils | 0.2624
CS(=O)(=O)c1cccc(C(=O)N2[C@@H](C(=O)N[C@@H](c3ccc(C(F)(F)F)c(F)c3)C3COC3)C[C@H]3C[C@H]32)c1 [Example 193] | Bovine cardiac myofibrils | 0.3676
Cc1ccc(C(C)NC(=O)[C@H]2CCCN2C(=O)[C@H]2CCCN(S(=O)(=O)N3CC(C#N)C3)C2)cc1 (stereo partly drawn) [Example 452] | Bovine cardiac myofibrils | 1.8655
N#CC1CN(S(=O)(=O)N2CCC[C@H](C(=O)N3CCC[C@@H]3C(=O)NCc3cccc(OC(F)F)c3)C2)C1 [Example 781] | Bovine cardiac myofibrils | 8.59

Prompt: I have this compound here, O=C(N[C@@H](c1cc(F)c(C(F)(F)F)cc1F)[C@H]1C[C@H](O)C1)[C@H]1C[C@H]2C[C@H]2N1C(=O)c1ccnc(C(F)F)c1 [Example 831] , and I need its recorded AC1.4.
Response: 0.6115

Prompt: Again, but for N#CC1CN(S(=O)(=O)c2cc(F)cc(C(=O)N3CCC[C@@H]3C(=O)NCc3ccc(C(F)(F)F)cc3)c2)C1 [Example 53]
Response: 0.0574

* * *

System: Bovine cardiac myofibrils
test.details: In vitro model of dose-dependent myofibril ATPase modulation (AC1.4, pyruvate kinase/lactate dehydrogenase-coupled ATPase assay at pCa25)
Format: biochemical
applied.conditions: concentration at which ATPase activity was 1.4-fold higher than the bottom of the dose curve, mean of a minimum of two independent tests
Where AC1.4 equals or exceeds 0.9 µM, the correct label is true; where it does not, the label is false.

compound | class.name
Cc1noc(C)c1C(=O)N1[C@@H](C(=O)N[C@@H](c2cc(F)c(C(F)(F)F)cc2F)C2COC2)C[C@H]2C[C@H]21 [Example 825] | true
O=C(N[C@@H](c1cc(F)c(C(F)(F)F)cc1F)C1CC1)[C@H]1C[C@H]2C[C@H]2N1C(=O)c1cccc(C(F)(F)F)n1 [Example 615] | true
N#CC1CN(S(=O)(=O)c2cccc(C(=O)N3CCC[C@@H]3C(=O)NCc3cccc(Cl)c3)c2)C1 [Example 190] | false

Prompt: Answer whether AC1.4 of N#CC1CN(S(=O)(=O)c2cccc(C(=O)N3CCC[C@@H]3C(=O)N[C@H](CC(F)(F)F)c3ccc(C(F)(F)F)cc3)c2)C1 [Example 7] is greater than or equal to 0.9 µM.
Response: false

Prompt: Same again, this time with N#CC1CN(S(=O)(=O)N2CCC[C@H](C(=O)N3CCC[C@@H]3C(=O)NCc3cccc(C(F)(F)F)c3F)C2)C1 [Example 335]
Response: true

Prompt: Same read-out for CCc1ccnc(C(=O)N2[C@@H](C(=O)N[C@@H](c3cc(F)c(Cl)cc3F)C3CC3)C[C@H]3C[C@H]32)c1 [Example 640] ?
Response: true

* * *

Test system: Bovine cardiac myofibrils
test.details: In vitro model of dose-dependent myofibril ATPase modulation (AC1.4, pyruvate kinase/lactate dehydrogenase-coupled ATPase assay at pCa25)
Assay type: biochemical
applied.conditions: concentration at which ATPase activity was 1.4-fold higher than the bottom of the dose curve, mean of a minimum of two independent tests
This listing pairs molecules with measured AC1.4.
// return numeric value only (unit: µM, not printed)

molecule | AC1.4 / µM
O=C(NCc1ccc(C(F)(F)F)cc1)[C@H]1CCCN1C(=O)[C@H]1CCCN(S(=O)(=O)N2CC(c3ccon3)C2)C1 | 0.4927
CCS(=O)(=O)c1cccc(C(=O)N2[C@@H](C(=O)N[C@@H](c3ccc(C(F)(F)F)cc3F)C3CC3)C[C@H]3C[C@H]32)c1 | 0.582
CNc1ccc(S(C)(=O)=O)cc1C(=O)N1CCC[C@@H]1C(=O)N[C@@H](c1ccc(C(F)(F)F)cc1F)C1CC1 | 0.4974

Prompt: Which measured AC1.4 value corresponds to `N#CC1CN(S(=O)(=O)c2cccc(C(=O)N3CCC[C@@H]3C(=O)NCc3cc(F)cc(F)c3)c2)C1` ?
Response: 0.0606

* * *

System: Bovine cardiac myofibrils
test.details: In vitro model of dose-dependent myofibril ATPase modulation (AC1.4, pyruvate kinase/lactate dehydrogenase-coupled ATPase assay at pCa25)
Assay type: biochemical
applied.conditions: concentration at which ATPase activity was 1.4-fold higher than the bottom of the dose curve, mean of a minimum of two independent tests
Procedure: In vitro Model of Dose-Dependent Myofibril ATPase Modulation: Dose responses were measured using a calcium-buffered, pyruvate kinase and lactate dehydrogenase-coupled ATPase assay containing the following reagents (concentrations expressed are final assay concentrations): Potassium PIPES (12 mM), MgCl2 (2 mM), ATP (1 mM), DTT (1 mM), BSA (0.1 mg/mi), NADH (0.5 mM), PEP (1.5 mM), pyruvate kinase (4 U/ml), lactate dehydrogenase (8 U/ml), and antifoam (90 ppm). […]
assay.readout: AC1.4

Prompt: Item O=C(NCc1ccc(C(F)(F)F)cc1)[C@H]1CCCN1C(=O)c1cccc(S(=O)(=O)N2CC(F)(F)C2)c1 [Example 461] has what recorded AC1.4?
Response: 1.9174 µM

Prompt: Next: O=C(N[C@@H](c1ccc(C(F)(F)F)cc1F)C1COC1)[C@H]1C[C@H]2C[C@H]2N1C(=O)c1ccccc1NC(=O)C(F)(F)F [Example 351]
Response: 1.0354 µM

Prompt: Repeat with O=C(N[C@@H](c1cc(F)c(C(F)(F)F)cc1F)C1COC1)[C@H]1C[C@H]2C[C@H]2N1C(=O)c1cc(C(F)(F)F)no1 [Example 826]
Response: 2.628 µM

* * *

AC1.4 overview
Tested on: Bovine cardiac myofibrils
test.details: In vitro model of dose-dependent myofibril ATPase modulation (AC1.4, pyruvate kinase/lactate dehydrogenase-coupled ATPase assay at pCa25)
Format: biochemical
applied.conditions: concentration at which ATPase activity was 1.4-fold higher than the bottom of the dose curve, mean of a minimum of two independent tests
Express the result in µM but write the number alone.

Solved entries (count: 2):
molecule | observed
CCC(NC(=O)[C@H]1CCCN1C(=O)[C@H]1CCCN(S(=O)(=O)N2CC(C)(O)C2)C1)c1ccc(C(F)(F)F)cc1 (stereo partly drawn) [Example 668] | 4.71
CN1C[C@H](C(=O)N[C@@H](c2ccc(C(F)(F)F)cc2F)C2CC2)N(C(=O)c2cccc(S(C)(=O)=O)c2)C1=O [Example 693] | 5.425

Kindly review the next molecule as well.
Prompt: Look up AC1.4: N#CC1CN(S(=O)(=O)c2cccc(C(=O)N3CCC[C@@H]3C(=O)N[C@@H](CO)c3ccc(C(F)(F)F)cc3)c2)C1 [Example 188]
Response: 0.3496

* * *

System: Bovine cardiac myofibrils
test.details: In vitro model of dose-dependent myofibril ATPase modulation (AC1.4, pyruvate kinase/lactate dehydrogenase-coupled ATPase assay at pCa25)
Format: biochemical
applied.conditions: concentration at which ATPase activity was 1.4-fold higher than the bottom of the dose curve, mean of a minimum of two independent tests
assay.readout: AC1.4 (µM)
Just the number please, in µM, no unit attached.

molecule | unit.info | AC1.4
C[C@H](O)[C@@H](NC(=O)[C@H]1C[C@H]2C[C@H]2N1C(=O)c1cccc(S(C)(=O)=O)c1)c1cc(F)c(Cl)cc1F [Example 405] | µM | 1.4065
CC(C)Nc1ccc(S(C)(=O)=O)cc1C(=O)N1CCC[C@@H]1C(=O)N[C@@H](c1ccc(C(F)(F)F)cc1F)C1CC1 [Example 81] | µM | 0.1048
CC[C@H](NC(=O)[C@H]1CCCN1C(=O)c1cccc(S(=O)(=O)N(C)C)c1)c1ccc(Cl)c(F)c1 [Example 629] | µM | 4.051

Now consider the entry below.
Prompt: State the recorded AC1.4 for this entry: CS(=O)(=O)c1cccc(C(=O)N2CC=C[C@@H]2C(=O)N[C@@H](c2ccc(C(F)(F)F)cc2F)C2CC2)c1 [Example 401]
Response: 1.378

* * *

Quick list: AC1.4 per entry.
System: Bovine cardiac myofibrils
test.details: In vitro model of dose-dependent myofibril ATPase modulation (AC1.4, pyruvate kinase/lactate dehydrogenase-coupled ATPase assay at pCa25)
Type: biochemical
applied.conditions: concentration at which ATPase activity was 1.4-fold higher than the bottom of the dose curve, mean of a minimum of two independent tests
Procedure: In vitro Model of Dose-Dependent Myofibril ATPase Modulation: Dose responses were measured using a calcium-buffered, pyruvate kinase and lactate dehydrogenase-coupled ATPase assay containing the following reagents (concentrations expressed are final assay concentrations): Potassium PIPES (12 mM), MgCl2 (2 mM), ATP (1 mM), DTT (1 mM), BSA (0.1 mg/mi), NADH (0.5 mM), PEP (1.5 mM), pyruvate kinase (4 U/ml), lactate dehydrogenase (8 U/ml), and antifoam (90 ppm). […]
Please respond with the number in µM and leave the unit unwritten.

Prompt: Tell me reported AC1.4 for N#CC1CN(S(=O)(=O)N2CCC[C@H](C(=O)N3CCC[C@@H]3C(=O)NCc3cc(F)ccc3F)C2)C1 [Example 394] , tested with Bovine cardiac myofibrils.
Response: 1.3725

Prompt: Continue with CS(=O)(=O)c1cccc(C(=O)N2CCC[C@@H]2C(=O)N[C@@H](c2ccc(C(F)(F)F)cc2F)C2COC2)c1 [Example 232]
Response: 0.5201
